- System Under Test: T1, TIAM2, Q8IVF5
- T1 sequence (Q8IVF5 885-986, limits assumed, looked up): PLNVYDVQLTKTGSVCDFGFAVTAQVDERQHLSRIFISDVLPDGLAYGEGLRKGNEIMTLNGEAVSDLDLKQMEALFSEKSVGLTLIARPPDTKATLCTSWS
- Assay Summary: holdup assay
- Design: key: below the threshold = too weak to quantify, mostly under pKd 3.1 to 4
- Conditions: plain residues with an end cap or a label only (N-terminal biotin on a linker: ado-ado)
Property: pKd

1) SQPLLVHDDV [KIT, P10721] = below the threshold
2) GNDPDRGTSI [GRID2, O43424] = 4.09
3) SSSVNVSSNL [CXCR1, P25024] = below the threshold
4) NISARRFTLC [FAM167B, Q9BTA0] = below the threshold
